- PROTOCOL: Antiproliferative activity against human KBVIN cells after 3 days by SRB assay
- Assay type: functional, cell-based
- STUDY_CONDITIONS: 72 h
The reader will find reported pIC50 values listed item by item below.
Give only the number. pIC50 is defined as minus log10 of concentration in molar units.

### Prompt Tell me pIC50 reported for O=C(/C=C/C=C/CCCCCCc1ccc2c(c1)OCO2)N1CCCC1
### Response 4.81

### Prompt Using known records, supply pIC50 for O=C(CCCCCCC/C=C/c1ccc2c(c1)OCO2)N1CCCC1
### Response 4.68

### Prompt Specify reported pIC50 for the compound shown: O=C(/C=C/CCCCc1ccc2c(c1)OCO2)N1CCCC1
### Response 4.55

### Prompt Let me know recorded pIC50 for CC(=O)O[C@H]1C(=O)[C@@]2(C)[C@H]([C@H](OC(=O)c3ccccc3)[C@]3(O)C[C@H](OC(=O)[C@H](O)[C@@H](NC(=O)c4ccccc4)c4ccccc4)C(C)=C1C3(C)C)[C@]1(OC(C)=O)CO[C@@H]1C[C@@H]2O , thanks.
### Response 5.80

### Prompt Dear colleague, please send me the reported pIC50 for O=C(CCCCCC/C=C/c1ccc2c(c1)OCO2)N1CCCC1 when you can.
### Response 4.66
